Tested on: MS2 coat protein
experiment: apparent Kd, MS2 coat protein; higher = weaker binding; RNA-MaP array; theophylline 2 mM where present
assay context: designed as: ON switch for theophylline; no ligand
reported metric: apparent Kd (nM)
Could you give me the number in nM? Just the number is fine.

Would you please look over these solved cases?
AAUUAAUUAACCGAUACCAGCCAACCAAAACAUGAGGAUCACCCAUGUAAGAAGAAGGGUGGCCCUUGGCAGCGGUUAAUUAAUU
27.8
AUCGUACCUGAUGAUACCAGCAUGUGCUCGUAACAUGAGGAUCACCCAUGUGAUCAGUGAUGCCCUUGGCAGCAUGAUCGGUGCA
169

Now take the following sequence into account.
Task item: Consider the sequence UUACAUGAGGAUCACCCAUGUCAUAACGAUACCAGAUAGUUAAUGAUCCCUUGGCAGCGUAAUACCUAGACAUUUAAGUCAUAGG and give its recorded apparent Kd.
Reply: 56.2

Every entry's value here was drawn from the EternaBench riboswitch data.
